Structures can show the parent of a compound that is named as a salt.
Documented melting point across a set of compounds

O=C1Nc2cc(Cl)ccc2N[C@H]1Cc1ccccc1 [Example II] | 185 °C
CC(C)=CCN1c2cc(Cl)ccc2NC(=O)[C@@H]1C [VI-A] | 117 to 118 °C
COCCOC(=O)N1c2cc(Cl)ccc2NC(=O)[C@@H]1C [XXXVI] | 93 to 94 °C
CC(C)=CCN1CC(=O)Nc2ccc(Cl)cc21 [Example XV] | 150 to 151 °C
O=C1CNc2ccc(S(=O)(=O)Oc3ccccc3)cc2N1 [XXIX] | 253 to 254 °C

Please report the measured melting point for CC(C)=CCN1c2ccccc2NC(=O)C1C (racemic) [XXV]
92 to 93 °C

Let me know recorded melting point for CC(C)CC1Nc2c(S(=O)(=O)Oc3ccccc3)ccc(N3CCN(C)CC3)c2NC1=O (stereo not drawn) (as salt: hydrochloride) [XXXII] , thanks.
≥ 90 °C (dec.)

Report melting point, nothing else, for this compound: C[C@H]1C(=O)Nc2ccc(Cl)cc2N1C(=O)Oc1ccc(Cl)cc1 [Example XI]
185 to 188 °C

Return melting point (reported value) for this compound: C[C@H]1C(=O)Nc2c(cc(Cl)cc2[N+](=O)[O-])N1C(=O)OCc1ccccc1 [Example IV]
85 °C

Return reported melting point. Input compound: CC(=O)CCN1c2ccccc2NC(=O)C1C (racemic) [XXXIV]
108 to 109 °C

Report measured melting point; entry is C[C@@H]1Nc2cc(Cl)ccc2NC1=O [Example IB]
122 to 123 °C

Answer with the recorded melting point of C[C@H]1C(=O)Nc2ccc(Cl)cc2N1C(=O)Oc1ccc(F)cc1 [Example X] only.
168 to 170 °C
